Assay: Solubility of CD101 acetate in various media
Format: physicochemical
Conditions: saline or isotonic; 5% Dextrose Solution (USP); maximum solubility not reached; read-out: Solubility
Starred links: 1 amine or outer side, 2 acyl side, 3 side chain; linkers in the order of their positions; H or OH if unused. Positions of bridges follow the written chain, without caps; N, C: chain ends. Non-standard residues stand in square brackets, D forms with d. Residues, ends and D or L forms follow the SMILES beside them. *: point of attachment. Orn(4R-OH,5R-OCH2CH2NMe3+) = C[N+](C)(C)CCO[C@@H](N[*:3])[C@H](O)C[C@H](N[*:1])C(=O)[*:2]; pTerphenylCO(4''-OnC5H11) = CCCCCOc1ccc(-c2ccc(-c3ccc(C(=O)*)cc3)cc2)cc1; hTyr(3S-OH,4S-OH) = N[C@H](C(=O)O)[C@H](O)[C@@H](O)c1ccc(O)cc1; Pro(3S-OH,4S-Me) = C[C@H]1CN[C@H](C(=O)O)[C@H]1O; Hyp = O=C(O)[C@@H]1C[C@@H](O)CN1
measured quantity: solubility

Query: Fill in the blank: the reported solubility of CCCCCOc1ccc(-c2ccc(-c3ccc(C(=O)N[C@H]4C[C@@H](O)[C@@H](OCC[N+](C)(C)C)NC(=O)[C@@H]5[C@@H](O)[C@@H](C)CN5C(=O)[C@H]([C@@H](C)O)NC(=O)[C@H]([C@H](O)[C@@H](O)c5ccc(O)cc5)NC(=O)[C@@H]5C[C@@H](O)CN5C(=O)[C@H]([C@@H](C)O)NC4=O)cc3)cc2)cc1 [CD101 acetate] ({pTerphenylCO(4''-OnC5H11)}-[Orn(4R-OH,5R-OCH2CH2NMe3+)]T[Hyp][hTyr(3S-OH,4S-OH)]T[Pro(3S-OH,4S-Me)]; lactam 1-C) is ____.
Result: > 12 mg/mL

====

Assay: Solubility of CD101 acetate in various media
Format: physicochemical
Conditions: PBS buffer with 2.5% Tween 80, pH 7.4, aqueous with cosolvent or surfactant or cyclodextrin; read-out: Solubility
Starred links: 1 amine or outer side, 2 acyl side, 3 side chain; linkers in the order of their positions; H or OH if unused. Positions of bridges follow the written chain, without caps; N, C: chain ends. Non-standard residues stand in square brackets, D forms with d. Residues, ends and D or L forms follow the SMILES beside them. *: point of attachment. Orn(4R-OH,5R-OCH2CH2NMe3+) = C[N+](C)(C)CCO[C@@H](N[*:3])[C@H](O)C[C@H](N[*:1])C(=O)[*:2]; pTerphenylCO(4''-OnC5H11) = CCCCCOc1ccc(-c2ccc(-c3ccc(C(=O)*)cc3)cc2)cc1; hTyr(3S-OH,4S-OH) = N[C@H](C(=O)O)[C@H](O)[C@@H](O)c1ccc(O)cc1; Pro(3S-OH,4S-Me) = C[C@H]1CN[C@H](C(=O)O)[C@H]1O; Hyp = O=C(O)[C@@H]1C[C@@H](O)CN1
measured quantity: solubility

Query: Fill in the blank: the reported solubility of CCCCCOc1ccc(-c2ccc(-c3ccc(C(=O)N[C@H]4C[C@@H](O)[C@@H](OCC[N+](C)(C)C)NC(=O)[C@@H]5[C@@H](O)[C@@H](C)CN5C(=O)[C@H]([C@@H](C)O)NC(=O)[C@H]([C@H](O)[C@@H](O)c5ccc(O)cc5)NC(=O)[C@@H]5C[C@@H](O)CN5C(=O)[C@H]([C@@H](C)O)NC4=O)cc3)cc2)cc1 [CD101 acetate] ({pTerphenylCO(4''-OnC5H11)}-[Orn(4R-OH,5R-OCH2CH2NMe3+)]T[Hyp][hTyr(3S-OH,4S-OH)]T[Pro(3S-OH,4S-Me)]; lactam 1-C) is ____.
Result: > 4000 µg/mL
